# measurement-target: IRAK4 (Homo sapiens, UniProt Q9NWZ3)
# Sequence (Q9NWZ3 1-460): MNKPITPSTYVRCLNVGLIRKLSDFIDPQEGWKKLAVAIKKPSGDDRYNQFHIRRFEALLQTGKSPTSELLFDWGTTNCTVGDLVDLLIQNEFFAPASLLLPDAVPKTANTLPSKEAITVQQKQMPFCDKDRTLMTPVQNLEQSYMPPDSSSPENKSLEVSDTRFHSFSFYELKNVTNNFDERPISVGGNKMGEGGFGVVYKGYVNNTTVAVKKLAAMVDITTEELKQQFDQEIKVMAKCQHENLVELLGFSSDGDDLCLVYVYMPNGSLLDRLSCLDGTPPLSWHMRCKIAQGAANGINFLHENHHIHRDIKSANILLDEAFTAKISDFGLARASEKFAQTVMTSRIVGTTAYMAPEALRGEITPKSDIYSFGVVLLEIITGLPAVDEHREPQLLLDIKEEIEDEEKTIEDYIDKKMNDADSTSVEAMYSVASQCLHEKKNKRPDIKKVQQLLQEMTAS
# assay-name: Hibit fluorescence detection of proteolysis (IRAK4-HiBiT in HEK293T cells)
# Format: cell-based
# Parameters: host or cells: HEK293T (ATCC)
# experimental-setup: HEK-293T
Each entry below lists one item and its recorded Dmax value.

Examples with answers:
Note to self: Dmax recorded for Cn1c(=O)n(C2CCC(=O)NC2=O)c2cccc(C#CC3CCN(C[C@H]4CC[C@H](n5cc(-n6cc(-c7ccc8cc(C(N)=O)cnn78)nn6)c(C(F)F)n5)CC4)CC3)c21 (stereo partly drawn) [Example 79] was 70 to 80%

// Cn1c(=O)n(C2CCC(=O)NC2=O)c2cccc(N[C@H]3CC[C@H](N(C)C[C@H]4CC[C@H](n5cc(-n6cc(-c7ccc8cc(C(N)=O)cnn78)nn6)c(C(F)F)n5)CC4)CC3)c21 (stereo partly drawn) [Example 61] : Dmax value = > 80%

New cases:
The recorded Dmax for entry Cn1c(=O)n(C2CCC(=O)NC2=O)c2cccc(N3CCN(C4CCN(C[C@H]5CC[C@H](n6cc(-n7cc(-c8cnn9ccc(N[C@H]%10CCCC[C@H]%10O)nc89)nn7)c(C(F)F)n6)CC5)CC4)CC3)c21 (stereo partly drawn) [Example 149] equals > 80%
